Where do the numbers come from? From ChEMBL document CHEMBL1141383.

- System: J774.1
- Assay Procedure: Inhibition of LPS-induced nitric oxide production in murine J774.1 cells by automated Griess assay
- Type: functional, cell-based
- Test Context: Mus musculus
Recorded Endpoint: IC50 (nM)

CCCCCCCCS(=O)(=O)NCCCN(CCCNCCCNCCCCNCCCN)CCCNS(=O)(=O)CCCCCCCC ... 320
CCCCCCCC(=O)NCCCN(CCCNCCCCNCCCN)CCCNC(=O)CCCCCCC ... 9020
CCCCCCCCS(=O)(=O)NCCCN(CCCNCCCCNCCCN)CCCNS(=O)(=O)CCCCCCCC ... 1820
CCCCCCCCCCCCS(=O)(=O)NCCCN(CCCNCCCNCCCCNCCCN)CCCNS(=O)(=O)CCCCCCCCCCCC ... 510
CCCCCCCCCCCCCCCCS(=O)(=O)N(CCCN)CCCCNCCCN ... 13700

a = CCCCCCCCCCCCCCCCS(=O)(=O)NCCCNCCCNCCCCNCCCN
b = CCCCCCCCS(=O)(=O)NCCCNCCCNCCCCNCCCNCCCNS(=O)(=O)CCCCCCCC
Look at a and b . Which one has the lower recorded IC50 number? Which one? Tell me its label. a
(a: 120 nM, b: 577 nM)
